Could you please report measured inhibition for the items listed next?
- assay.notes: endothelial E-selectin expression blockers – imaging, HUVEC, immunofluorescence, MLSMR starter and 10KST1 sets, primary screen (AID 487);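 further: signal is fraction of cell area covered by stained E-selectin grains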
- measurement.conditions: HUVEC TNFalpha-induced E-selectin immunofluorescence imaging, at 2 µM; hits give high values
Numbers only, in %.

Known inhibition results, listed for orientation:
- molecule: "Cc1c(NC(=O)c2noc3c2CCc2ccccc2-3)c(=O)n(-c2ccccc2)n1C"
  experimental.value: -79.6
- molecule: "COc1cccc(OCC(=O)Nc2ccccc2C(N)=O)c1"
  experimental.value: -73.4
- molecule: "CSCCC(C(=O)Nc1ccc2c(c1)OCO2)N1C(=O)c2ccccc2C1=O (stereo unspecified)"
  experimental.value: -138
- molecule: "Cc1cc(NC(=O)COC(=O)C2COc3ccccc3O2)no1 (stereo unspecified)"
  experimental.value: -15.9
- molecule: "Cn1c(C(=O)NCCN2CCN(c3ccccc3F)CC2)cc2c(=O)n(C)c3ccccc3c21"
  experimental.value: -30.2

Kindly give each listed record's inhibition.
1. CCCCn1c(CN2CCN(c3ccccc3)CC2)nc2c1c(=O)n(C)c(=O)n2C
2. COC(=O)CSC1=C(C#N)C(c2ccccc2)CC(=O)N1 (stereo unspecified)
3. CCOC(=O)N1CCC(N(C(=O)Nc2cccc(OC)c2)C(C)CC)CC1 (stereo unspecified)
4. CC(=O)NC(CCS(C)(=O)=O)C(=O)Nc1cccc2ccccc12 (stereo unspecified)
5. c1cc(-c2nc3ccccc3o2)nc(-c2nc3ccccc3o2)c1
6. COc1ccc(-n2nnnc2SCC(=O)N2CCOCC2)cc1

[-17.7, 7.2, -60.6, -7.5, 9.6, -9.3]
